The reported measurements were obtained from patent US20250049966A1.

STUDY_TARGET: human α-synuclein aggregates (Homo sapiens, UniProt P37840)
Construct: made in house; host or cells: E. coli BL21 (DE3)
METHOD_SUMMARY: Fluorescence saturation binding of compounds to α-synuclein aggregates
MEASUREMENT_SETUP: fluorescence method, α-synuclein aggregates (3 μM), room temperature 1 hour; read-out: Binding affinity (Kd) on human α-synuclein aggregates
ENDPOINT_NAME: Kd

{"columns": ["MOLECULE", "ENDPOINT_NAME", "VALUE"],
 "data": [
  ["CN(C)c1ccc(-c2nc3cc(-c4cccnc4)ccc3o2)cc1 [I-2]", "Kd", "500 to 1000 nM"],
  ["Fc1ccc(-c2ccc3nc(-c4ccc(N5CCCC5)nc4)oc3c2)cn1 [I-6]", "Kd", "200 to 500 nM"],
  ["CN(C)c1ccc(-c2nc3cc(-c4cccnc4)ccc3o2)cn1 [I-1]", "Kd", "500 to 1000 nM"],
  ["CN(C)c1ccc(-c2nc3cc(N4CCN(CCF)CC4=O)ccc3o2)cn1 [I-10]", "Kd", "200 to 500 nM"],
  ["Fc1ccc(-c2ccc3oc(-c4ccc(N5CCCC5)nc4)nc3c2)cn1 [I-5]", "Kd", "200 to 500 nM"]
]}
